Tested on: Wolbachia pipientis
Assay: Anti-Wolbachia Cell-Based Screen
Assay type: functional
Parameters: scale not given: in the data most compounds retested in dose-response had high values
Details: 5 µM
The whole screen tested about 48,000 compounds, of which about 13,000 (27%) showed an effect of 50% or more. The list shows a part of the results.
Listed below: Percent Effect values for each entry.
Provide only the numeric value, understood in %.

Record excerpt, results attached:
| compound | studySystem | measurementName | resultValue |
| --- | --- | --- | --- |
| Nc1nc(CN2CCOC(Cn3cncn3)C2)nc2ccccc12 (stereo not given) | Wolbachia pipientis | Percent Effect | -0.7232 |
| Cn1ccc(C(=O)N2CCC(Cc3cccc4ncccc34)CC2)n1 | Wolbachia pipientis | Percent Effect | 112 |
| CS(=O)(=O)NCC1CCCCN1Cc1ccccc1C#N (stereo not given) | Wolbachia pipientis | Percent Effect | 1.848 |
| Cc1cnn(CC2CN(Cc3nc(N)c4ccccc4n3)CCO2)c1 (stereo not given) | Wolbachia pipientis | Percent Effect | 9.564 |
| Cn1c(SCC(O)COCc2ccccc2Cl)nnc1C1CC1 (stereo not given) | Wolbachia pipientis | Percent Effect | -19.68 |
| CN(Cc1ccco1)[C@@H]1CN(CC2CCOCC2)C[C@@H]2CCCO[C@@H]21.O=C(O)C(F)(F)F.O=C(O)C(F)(F)F | Wolbachia pipientis | Percent Effect | 2.943 |
| CCc1nc(C2CCCN2C(=O)c2nc(C)n3ccccc23)no1 (stereo not given) | Wolbachia pipientis | Percent Effect | -3.852 |
| Cc1ccc(-c2cn[nH]c2C2CCCN(c3nccc(N)n3)C2)cc1 (stereo not given) | Wolbachia pipientis | Percent Effect | 6.644 |

Consider the compound shown here: Cc1ccc(N2CCCC(c3[nH]ncc3-c3ccccc3)C2)nn1 (stereo not given) What is its recorded Percent Effect?
25.67

Okay, and CN(CCOc1ccc(F)cc1)S(=O)(=O)N1CCOCC1 ?
-1.618

Okay, and Cn1ccc(C(=O)N2CCCC(Cc3cccc4cccnc34)C2)n1 (stereo not given) ?
100.6

* * *

Listed below: Percent Effect values for each entry.
System: Wolbachia pipientis
Test: Anti-Wolbachia Cell-Based Screen
Type: functional
Design: scale not given: in the data most compounds retested in dose-response had high values
Details: 5 µM
The campaign covered roughly 48,000 compounds. About 13,000 (27%) showed an effect of 50% or more. The list shows a part of the results.
Provide only the numeric value, understood in %.

For Wolbachia pipientis, provide Percent Effect of COCCN(Cc1cccs1)C(=O)C1CCCN(C(N)=O)C1 (stereo not drawn) please.
11.05

Okay, and CC1N(C)C(=O)COC12CCN(Cc1nccs1)CC2.O=C(O)C(F)(F)F (stereo not drawn) ?
126.1

Okay, and COc1ccccc1OCc1nc(C(C)C)no1 ?
-14.46

Okay, and CN(C)C(=O)CN1CCC2(CCN(Cc3nccs3)CC2)C1=O.O=C(O)C(F)(F)F ?
-19.71

Okay, and COc1ccc(CN(C)C2CSCCSC2)c2cccnc12 ?
-27.46

Okay, and COc1ccccc1-n1nc(CC(C)C)nc1CSc1nnc(N)s1 ?
106.5

Okay, and Cc1cccc(-n2nc(CC(C)C)nc2CCCC(N)=O)c1 ?
10.56

Okay, and CCOCCC(=O)N1CCCN(Cc2csc(CC)n2)CC1 ?
-3.622

Okay, and O=C(NC1CC1)c1ccc(SCc2cscn2)cc1 ?
-37.4

Okay, and COc1ccccc1-n1nc(C(C)C)nc1Cc1nnc(N)s1 ?
123.2

Okay, and CC1CN(Cc2nccn2C)CCN1c1ccc2nncn2n1 (stereo not drawn) ?
2.712

Okay, and CC(Sc1nnc(C2CC2)n1CC(N)=O)c1ccc(F)c(Cl)c1 (stereo not drawn) ?
-2.548

* * *

Tested on: Wolbachia pipientis
Experiment: Anti-Wolbachia Cell-Based Screen
Type: functional
Design: scale not given: in the data most compounds retested in dose-response had high values
Conditions: 5 µM
Among all 48,000 compounds or so, about 13,000 (27%) showed an effect of 50% or more. The list shows a part of the results.
measurementName: Percent Effect (%)
Provide only the numeric value, understood in %.

| compound | Percent Effect [%] |
| --- | --- |
| CCNc1ccnc(NC2CCN(CC(N)=O)CC2)n1 | 2.921 |
| CC(C)(C)n1nc(C2CC2)cc1C(=O)NC1CCN(CC(N)=O)CC1 | 124.1 |

Consider the compound shown here: COc1cc(CCNC(=O)NCCC2CCCO2)ccc1C (centres undefined) What is its recorded Percent Effect?
-11.71

Okay, and COc1ccc(F)cc1C(C)NC(=O)c1nnc(C)s1 (centres undefined) ?
1.178

Okay, and COCC(=O)N1CCN(S(=O)(=O)c2ccccc2)[C@H]2CS(=O)(=O)C[C@H]21 ?
117.3

Okay, and CNC(=O)C1CCC(NC(=O)c2cc(C3CC3)n(C(C)(C)C)n2)CC1 (centres undefined) ?
117.3

Okay, and Cc1cc(C(=O)NC(C)C(=O)Nc2cc(F)ccc2C)nc(C)n1 (centres undefined) ?
-4.486

Okay, and CN1CCO[C@@H]2CN(S(=O)(=O)c3ccccc3F)CC[C@@H]2C1.O=C(O)C(F)(F)F ?
-5.27

Okay, and CS(=O)(=O)N1CCN(C(=O)c2ccco2)[C@H]2CS(=O)(=O)C[C@H]21 ?
-4.132

* * *

Tested on: Wolbachia pipientis
Test: Anti-Wolbachia Cell-Based Screen
Assay type: functional
Set-up: scale not given: in the data most compounds retested in dose-response had high values
Conditions: 5 µM
About 13,000 (27%) of roughly 48,000 compounds showed an effect of 50% or more. The list shows a part of the results.
# T = Percent Effect below 10% (exclusive); F = Percent Effect at/above 10%

Completed entries (count: 2):
| compound | studySystem | labelValue |
| --- | --- | --- |
| CC(=O)c1ccc(C(=O)N2CCCCC2c2nc[nH]n2)cc1 (centres undefined) | Wolbachia pipientis | T |
| CC(C)N1CCC(CC(=O)N2CCN(Cc3nccn3C)CC2)CC1 | Wolbachia pipientis | F |

Does the reported Percent Effect of the following compound sit strictly below 10%? CC(C)n1ccnc1CN1CCCN(C(=O)CC2C=CCC2)CC1 (centres undefined)
F

Okay, and COc1ccnc(CN2CCC=C(C(C)NC(C)=O)C2)c1OC (centres undefined) ?
T

Okay, and Cc1nccn1CCC(=O)N1CCCN(CCCc2ccccc2)CC1 ?
T

Okay, and N#Cc1cc(N2CCC(S(N)(=O)=O)CC2)c2ccccc2n1 ?
T

* * *

Test system: Wolbachia pipientis
Assay: Anti-Wolbachia Cell-Based Screen
Assay type: functional
Set-up: scale not given: in the data most compounds retested in dose-response had high values
Settings: 5 µM
About 13,000 (27%) of roughly 48,000 compounds showed an effect of 50% or more. This is one part of the list.
Listed below: Percent Effect values for each entry.
Provide only the numeric value, understood in %.

Record excerpt, results attached:
| molecule | Percent Effect (%) |
| --- | --- |
| COCCN1CCCC(c2ncc(C(=O)N3CCOCC3)c(C)n2)C1 (stereo unspecified) | 169 |
| Cc1cc(N)nc(SC2CCN(c3ccccc3)C2=O)n1 (stereo unspecified) | -22.79 |
| COCCN1CCC(c2ncc(C(=O)N3CCOCC3)c(C)n2)CC1 | 139.1 |
| Cc1nc(Nc2ncccn2)cc(C2CCCN2C2CCOCC2)n1 (stereo unspecified) | -10.06 |
| N#Cc1cccc(NC(=O)N[C@H](CO)c2ccccc2)c1 | -16.24 |

For Wolbachia pipientis, provide Percent Effect of COCCn1cnc(-c2nc(C(=O)N3CCOCC3)c3ccccn23)c1 please.
-9.685

Okay, and CCC(=O)N1CCCCC1c1nc(O)c2c(n1)CN(C(=O)C1CC1)CC2 (stereo unspecified) ?
109.8

Okay, and CC(C)N1CCC(C(=O)N2CCc3c(nc(CC4CC4)[nH]c3=O)C2)CC1 ?
-3.187

Okay, and CCc1cnc(CN(C)C2CCN(c3sccc3C#N)C2=O)s1 (stereo unspecified) ?
1.692

Okay, and Cc1nc(Nc2ccccn2)cc(C2CCCN2Cc2ncc[nH]2)n1 (stereo unspecified) ?
129.4

Okay, and CN(C)c1nc2c(c(N(C)C)n1)CCN(C(=O)CN1CCC(O)CC1)C2 ?
-41.67

* * *

Listed below: Percent Effect values for each entry.
Test system: Wolbachia pipientis
Experiment: Anti-Wolbachia Cell-Based Screen
Assay type: functional
Set-up: scale not given: in the data most compounds retested in dose-response had high values
Conditions: 5 µM
In all, about 48,000 compounds went through this assay and about 13,000 (27%) showed an effect of 50% or more. Some of the results follow.
Provide only the numeric value, understood in %.

| compound | Percent Effect (%) |
| --- | --- |
| Cn1nccc1-c1ncc2c(c1C(=O)O)CCN(Cc1ccncc1)C2.O=C(O)C(F)(F)F.O=C(O)C(F)(F)F | -6.643 |
| COc1ccccc1N1CCC(CNC(=O)N(C)Cc2ccco2)C1 (centres undefined) | 0.07203 |
| O=C(O)C(F)(F)F.O=C([C@H]1C[C@@H]2CCN(c3cccc(F)c3)C[C@H]2O1)N1CCCC1 | 111.1 |
| OCC1(O)CCCN(Cc2noc(-c3ccccc3)n2)C1 (centres undefined) | 97.27 |
| CC(Cn1cccn1)NC(=O)NCc1ccc(S(C)(=O)=O)cc1 (centres undefined) | 102.2 |
| CNC(=O)CCc1cc(C2CCCCN2C)nc(C)n1 (centres undefined) | 129.2 |
| OCC1(Cc2ccc(Cl)cc2)CCN(Cc2ccccc2O)CC1 | -3.576 |
| CCS(=O)(=O)NCCCNc1ncnc2cc(F)c(F)cc12 | -7.857 |

For Wolbachia pipientis, provide Percent Effect of CN1CCc2nc3cc(C(=O)NCc4cccs4)ccc3c(=O)n2CC1 please.
76.54

Okay, and CCN1CCC(NC(=O)Cc2csc(C(C)(C)C)n2)CC1 ?
4.843

Okay, and c1ccc(-c2nc(CN3CCn4c(nnc4C4CC4)C3)no2)cc1 ?
-9.405

Okay, and O=C1CCC(=O)N1c1nn(Cc2ccc(F)cc2)cc1Cl ?
96.9

Okay, and Cc1cccc(C(C(=O)N(C)Cc2ccon2)N(C)C)c1 (centres undefined) ?
3.369

Okay, and Cc1nc(O)cc(CCNC(=O)C2CC(=O)N(CC(C)C)C2)n1 (centres undefined) ?
-0.9354

Okay, and c1ccc2c(c1)COC1(CCCC1)N2 ?
105.5

Okay, and CC1(C)CN(Cc2cc(C3CCCCC3)no2)CC[C@]1(C)O ?
3.04

Okay, and c1ccc(CN2CCC3(CC2)Nc2ccccc2CO3)cc1 ?
107.9

Okay, and O=S(=O)(C1CC1)N1CCOC2(CCCN(c3cccc(F)c3)C2)C1 (centres undefined) ?
7.053

Okay, and Cn1cc(-c2ncc3c(c2C(=O)O)CCN(Cc2ccccn2)C3)cn1.O=C(O)C(F)(F)F.O=C(O)C(F)(F)F ?
106.1

Okay, and Cc1ncnc(NC(CC(C)(C)C)c2cccnc2)c1C (centres undefined) ?
-0.1537

Okay, and COCC1CN(Cc2cc(C)on2)Cc2cn(CC3CCCC3)nc21.O=C(O)C(F)(F)F.O=C(O)C(F)(F)F (centres undefined) ?
1.452

Okay, and O=c1c2sccc2nc2n1CCN(Cc1cccs1)CC2 ?
5.975

Okay, and Cc1ccc(CN2CC[C@H]3C[C@H](C(=O)N4CCCO4)O[C@@H]3C2)o1.O=C(O)C(F)(F)F ?
-11.63

Okay, and COc1cc2nc3n(c(=O)c2cc1OC)CCN(C)CC3 ?
-3.498

Okay, and Cn1cc(CN2CCc3c(cnc(-c4ccccc4)c3C(=O)O)C2)cn1.O=C(O)C(F)(F)F.O=C(O)C(F)(F)F ?
-3.13

Okay, and Cn1cc(-c2ncc3c(c2C(=O)O)CCN(Cc2ccco2)C3)cn1.O=C(O)C(F)(F)F ?
100.1
